Reported efflux ratio at 90 min, 10 μM values for the following molecules.
experiment: in vitro; conditions: human, Caco-2, pH 7.4

{"itemSmiles": "CN1CCN(c2cccc3nc([C@H]4CCC[C@@H](c5ncccc5Cl)N4C)cn23)CC1", "quantityKind": "efflux ratio at 90 min, 10 μM", "reading": "0.1 to 10"}
{"itemSmiles": "CCN1[C@@H](c2nc3cccc(N4CCN(C)CC4)n3c2Br)CCC[C@H]1c1ncccc1C", "quantityKind": "efflux ratio at 90 min, 10 μM", "reading": "0.1 to 10"}
{"itemSmiles": "Cc1cccnc1[C@@H]1CCC[C@H](c2nc3ccccn3c2N2CCN(C)CC2)N1C", "quantityKind": "efflux ratio at 90 min, 10 μM", "reading": "0.1 to 10"}
{"itemSmiles": "CCN1CCN(c2cccc3nc([C@H]4CCC[C@@H](c5ncccc5C)N4C)c(Br)n23)CC1", "quantityKind": "efflux ratio at 90 min, 10 μM", "reading": "0.1 to 10"}
{"itemSmiles": "Cc1cccnc1[C@@H]1CCC[C@H](c2cn3c(N4C5CCC4CNC5)cccc3n2)N1C", "quantityKind": "efflux ratio at 90 min, 10 μM", "reading": "> 30"}

Need efflux ratio at 90 min, 10 μM of "Cc1cccnc1[C@@H]1CCC[C@H](c2nc3cccc(N4CCN(C)CC4)n3c2Cl)N1C(C)C" , thanks.
0.1 to 10

Need efflux ratio at 90 min, 10 μM of "Cc1cccnc1[C@@H]1CCC[C@H](c2nc3ccccn3c2N2CCN(C)CC2)N1" , thanks.
0.1 to 10

Reference source: patent US10759796B2
